Target: Aurora A (Homo sapiens)
Sequence (O14965 1-403): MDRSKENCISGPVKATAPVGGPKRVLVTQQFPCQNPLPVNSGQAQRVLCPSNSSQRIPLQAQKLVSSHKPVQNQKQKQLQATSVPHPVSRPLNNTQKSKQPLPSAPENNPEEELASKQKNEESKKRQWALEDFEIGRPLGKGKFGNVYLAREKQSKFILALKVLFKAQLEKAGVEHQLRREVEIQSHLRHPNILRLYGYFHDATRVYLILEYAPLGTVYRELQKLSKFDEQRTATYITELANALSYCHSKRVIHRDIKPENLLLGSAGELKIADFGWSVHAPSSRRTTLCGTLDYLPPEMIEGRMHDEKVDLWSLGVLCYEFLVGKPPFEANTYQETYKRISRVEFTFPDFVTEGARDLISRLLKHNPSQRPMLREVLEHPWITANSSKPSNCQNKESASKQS
Experiment: In vitro filtration assay for AURORA A inhibitory activity
Format: biochemical
Settings: 200 μM Kemptide substrate, [33P]-ATP, 1 μM unlabeled ATP, 25° C., 40 minutes; read-out: Aurora A see C.2 (pIC50) (converted)
MEASURED METRIC: log10(IC50) (log10 of the value in nM)
Heads up, the numbers here are log10 of IC50 in nM units.

>>> test_result("c1ccc2c(c1)CC(NCc1ccc(Nc3ncc4cnn([C@H]5C[C@@H]6CC[C@H]5C6)c4n3)cc1)C2")
2.50
>>> test_result("c1ccc2c(c1)CC(NCc1ccc(Nc3ncc4cnn(C5CCCCC5)c4n3)cc1)C2")
2.40

input: Reported log10(IC50) for `CC(C)(C)OC(=O)N(Cc1ccc(Nc2ncc3cnn(C4CCCCC4)c3n2)cc1)C1Cc2ccccc2C1` : what is it?
output: 3.00

input: Next entry: `O=C(NC1Cc2ccccc2C1)c1ccc(Nc2ncc3cnn(C4CCCCC4)c3n2)cc1`
output: 2.50

input: Next entry: `CC(C)(C)OC(=O)N(c1ccc(CN(C(=O)OC(C)(C)C)C2Cc3ccccc3C2)cc1)c1ncc2cnn([C@H]3C[C@@H]4CC[C@H]3C4)c2n1`
output: 2.20

input: Next entry: CCN(CC)CC(O)COc1ccc(Nc2ncc3cnn(C4CCCCC4)c3n2)cc1 (stereo not drawn)
output: 3.20

input: Next entry: `c1ncn(-c2ccc(Nc3ncc4cnn(C5CCCCC5)c4n3)cc2)n1`
output: 2.10

input: Next entry: `COCCCNCc1ccc(Nc2ncc3cnn(C4CCOCC4)c3n2)cc1`
output: 3.60

----------
biological target: CDK4/cyclinD1 (Homo sapiens); assay: In vitro filtration assay for CDK4 inhibitory activity; format: biochemical; conditions: GST-pRb phosphorylation, [33P]-ATP, 1 μM unlabeled ATP, 25° C., 45 minutes; read-out: cdk4 filter (pIC50) (converted)
Sequence (P11802 whole entry, species assumed): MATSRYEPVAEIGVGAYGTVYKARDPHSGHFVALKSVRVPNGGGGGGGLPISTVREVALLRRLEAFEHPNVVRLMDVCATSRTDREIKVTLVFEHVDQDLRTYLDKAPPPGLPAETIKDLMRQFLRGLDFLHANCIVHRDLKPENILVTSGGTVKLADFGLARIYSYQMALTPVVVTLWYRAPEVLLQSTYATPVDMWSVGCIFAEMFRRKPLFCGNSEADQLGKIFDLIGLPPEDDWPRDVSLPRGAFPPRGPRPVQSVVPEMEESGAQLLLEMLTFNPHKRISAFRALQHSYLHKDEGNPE
Sequence (P24385 whole entry partner, species assumed): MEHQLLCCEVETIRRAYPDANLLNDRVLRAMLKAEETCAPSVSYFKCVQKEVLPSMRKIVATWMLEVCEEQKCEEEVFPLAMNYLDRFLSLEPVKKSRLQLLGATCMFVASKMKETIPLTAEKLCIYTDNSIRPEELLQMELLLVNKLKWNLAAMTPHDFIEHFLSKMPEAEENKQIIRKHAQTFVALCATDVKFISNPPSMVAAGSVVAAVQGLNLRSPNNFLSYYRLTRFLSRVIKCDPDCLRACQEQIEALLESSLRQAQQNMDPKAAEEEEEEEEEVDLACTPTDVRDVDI
Entries and their IC50 values follow.
Write down the numeric answer in nM and omit the unit.

>>> test_result("c1ccc2c(c1)CC(NCc1ccc(Nc3ncc4cnn(C5CCOCC5)c4n3)cc1)C2")
63.1
>>> test_result("O=C(NC1Cc2ccccc2C1)c1ccc(Nc2ncc3cnn(C4CCCCC4)c3n2)cc1")
63.1

input: Reported IC50 for `COCCCN(Cc1ccc(Nc2ncc3cnn([C@H]4C[C@@H]5CC[C@H]4C5)c3n2)cc1)C(=O)OC(C)(C)C` : what is it?
output: 2000

input: Next entry: CCN(CC)CC(O)COc1ccc(Nc2ncc3cnn(C4CCCCC4)c3n2)cc1 (centres unmarked)
output: 7.94

input: Next entry: `COCCCNCc1ccc(Nc2ncc3cnn(C4CCCCC4)c3n2)cc1`
output: 6.31

input: Next entry: `c1ccc2c(c1)CC(NCc1ccc(Nc3ncc4cnn(C5CCCCC5)c4n3)cc1)C2`
output: 12.6

input: Next entry: `CCN(CC)CCCOc1ccc(Nc2ncc3cnn(C4CCCCC4)c3n2)cc1`
output: 20

input: Next entry: `COCCCNS(=O)(=O)c1ccc(Nc2ncc3cnn(C4CCCCC4)c3n2)cc1`
output: 1260

input: Next entry: `CCN(CC)CCNC(=O)c1ccc(Nc2ncc3cnn(C4CCCCC4)c3n2)cc1`
output: 25.1

input: Next entry: `COCCCN(Cc1ccc(Nc2ncc3cnn(C4CCCCC4)c3n2)cc1)C(=O)OC(C)(C)C`
output: 1000

input: Next entry: COCCCNCc1ccc(Nc2ncc3cnn([C@H]4C[C@@H]5CC[C@H]4C5)c3n2)cc1 [Co. No. 9]
output: 79.4

input: Next entry: `c1cc2cc(Nc3ncc4cnn(C5CCCCC5)c4n3)ccc2[nH]1`
output: 158

input: Next entry: `c1ccc2c(c1)CC(NCc1ccc(Nc3ncc4cnn([C@H]5C[C@@H]6CC[C@H]5C6)c4n3)cc1)C2`
output: 25.1

input: Next entry: `CN(C)CCOC(=O)c1ccc(Nc2ncc3cnn(C4CCCCC4)c3n2)cc1`
output: 100

input: Next entry: `COCCCN(Cc1ccc(Nc2ncc3cnn(C4CCOCC4)c3n2)cc1)C(=O)OC(C)(C)C`
output: 2000
